System: cancer cells
Assay remarks: Antiproliferation assays, cancer cell panel
Format: cell-based
Measurement setup: MLL-r leukemia cells Molm-13, MV4;11 and THP-1; read-out: EC50s against proliferation (range)
pEC50: −log10 of the molar value.
Quantity measured: pEC50

Lookup: Note pEC50 for the molecule shown: CC(C)(C)c1ccc(-n2cc(C(=O)NC3CCNCC3)nc2-c2ccccc2)cc1
Found: 4.96 to 5.33

====

Tested target: AF9-DOT1L interaction (Homo sapiens)
Construct: cDNA for human AF9 AHD domain (475-568) and ENL AHD domain (489-559) was synthesized; made in house; host or cells: E. coli BL21(DE3)
Sequence (P42568 475-568): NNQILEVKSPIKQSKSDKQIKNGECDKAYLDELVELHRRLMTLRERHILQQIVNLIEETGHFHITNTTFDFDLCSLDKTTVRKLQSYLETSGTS
Assay remarks: Alpha assay, AF9 AHD-DOT1L peptide interaction
Type: binding
Measurement setup: read-out: IC50, inhibition of AF9-DOT1L interaction
Quantity measured: IC50

Lookup: For the compound O=C(NC1CCNCC1)c1cn(-c2ccc(-c3cn[nH]c3)cc2)c(-c2ccccc2)n1 , give its measured IC50 value.
Found: > 50 µM

Lookup: Identify IC50 associated with the compound Cc1nc(C(=O)NC2CCNCC2)cn1-c1ccc(C(C)(C)C)cc1
Found: > 50 µM

Lookup: Supply IC50 value. Item: CC(C)(C)c1ccc(-n2cc(C(=O)Nc3ccc(Cl)c(F)c3)nc2-c2ccccc2)cc1
Found: > 50 µM
